Reported Enzymatic activity pIC50 C.1 is given for each of the following compounds.
# Assay Target: histone deacetylase (HeLa nuclear extracts)
# Protocol Description: In vitro assay for inhibition of histone deacetylase with fluorescent-labelled substrate
# Format: biochemical
# Experimental Parameters: Fluor de Lys substrate

Sample answers from the record:
1. Cn1cc(CNCC2CCN(c3ncc(C(=O)Nc4ccccc4N)cn3)CC2)c2ccccc21 | 4.8
2. Nc1ccccc1NC(=O)c1cnc(N2CCC(CNCCc3c[nH]c4ccccc34)CC2)nc1 | <6

QUERY: Determine from records and report Enzymatic activity pIC50 C.1 for CCCn1cc(CCNCC2CCN(c3ncc(C(=O)Nc4ccccc4N)cn3)CC2)c2cc(Cl)ccc21
RESULT: <6

QUERY: Determine from records and report Enzymatic activity pIC50 C.1 for CCCn1cc(CNCC2CCN(c3ncc(C(=O)Nc4ccccc4N)cn3)CC2)c2cc(F)ccc21
RESULT: <6

QUERY: Determine from records and report Enzymatic activity pIC50 C.1 for CS(=O)(=O)N(CCc1c[nH]c2ccccc12)CC1CCN(c2ncc(C(=O)Nc3ccccc3N)cn2)CC1
RESULT: <6
